Record: IC50 reported on human IRAK-4 (Homo sapiens (Human), UniProt Q9NWZ3).
Sequence (Q9NWZ3 whole entry): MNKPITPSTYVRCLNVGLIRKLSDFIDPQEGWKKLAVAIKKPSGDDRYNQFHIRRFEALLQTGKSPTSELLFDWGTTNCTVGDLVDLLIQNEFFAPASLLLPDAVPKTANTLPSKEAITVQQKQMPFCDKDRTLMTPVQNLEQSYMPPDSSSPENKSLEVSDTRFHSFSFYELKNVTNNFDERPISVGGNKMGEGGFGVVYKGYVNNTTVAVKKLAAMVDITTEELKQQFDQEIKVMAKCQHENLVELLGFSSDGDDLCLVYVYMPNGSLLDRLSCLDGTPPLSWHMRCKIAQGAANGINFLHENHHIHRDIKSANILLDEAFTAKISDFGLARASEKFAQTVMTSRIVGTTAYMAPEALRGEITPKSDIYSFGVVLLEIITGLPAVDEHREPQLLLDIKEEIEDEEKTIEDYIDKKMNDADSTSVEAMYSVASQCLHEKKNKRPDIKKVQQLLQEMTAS

compound | readingUnit | IC50
COCCOCC(=O)N1CCN([C@H]2C[C@@H](C(=O)Nc3nc4ccc(-c5cnc(CO[C@H]6CCC[C@@H]6O)nc5)cc4s3)C2)[C@@H](C)C1 | nM | 2.37
CCCOCc1ncc(-c2ccn3nc(NC(=O)[C@H]4C[C@@H](N5CCN(C(=O)c6ccc(C(F)(F)F)cn6)C[C@@H]5C)C4)cc3c2)cn1 | nM | 1.85
C[C@H]1CN(C(=O)C2CC2)CCN1[C@H]1C[C@@H](C(=O)Nc2nc3ccc(-c4cnc(CO[C@H]5CCC[C@@H]5O)nc4)cc3s2)C1 | nM | 2.47
O=C(Nc1nc2ccc(-c3cnc(CO[C@H]4CCC[C@@H]4O)nc3)cc2s1)C1CC(NCC(F)F)C1 (some centres unmarked) | nM | 2.6
CCCOCc1ncc(-c2ccn3nc(NC(=O)[C@H]4C[C@@H](N5CCN(C(=O)N(C)C)C[C@@H]5C)C4)cc3c2)cn1 | nM | 2.22
COc1c(-c2cnc(CO[C@H]3CCC[C@@H]3O)nc2)ccc2nc(NC(=O)C3CC34CC4)sc12 (some centres unmarked) | nM | 2.13
O=C(Nc1nc2ccc(-c3cnc(CO[C@H]4CCC[C@@H]4O)nc3)cc2s1)C1CC(N2CCOCC2)C1 (some centres unmarked) | nM | 3.39
O=C(Nc1nc2ccc(-c3cnc(CO[C@H]4CCC[C@@H]4O)nc3)c(OC[C@H]3CCOC3)c2s1)C1CC1 | nM | 17.1
Cc1cccc(C(=O)N2CCN([C@H]3C[C@@H](C(=O)Nc4nc5ccc(-c6cnc(CO[C@H]7CCC[C@@H]7O)nc6)cc5s4)C3)[C@@H](C)C2)n1 | nM | 1.15
C[C@H]1CN(C(=O)c2cncnc2)CCN1[C@H]1C[C@@H](C(=O)Nc2nc3ccc(-c4cnc(CO[C@H]5CCC[C@@H]5O)nc4)cc3s2)C1 | nM | 0.85
O=C(Nc1nc2ccc(-c3cnc(CO[C@H]4CCC[C@@H]4O)nc3)cc2s1)C1CC(N(CCC(F)(F)F)C23CC(C2)C3)C1 (some centres unmarked) | nM | 11
O=C(Nc1nc2ccc(-c3cnc(CO[C@H]4CCC[C@@H]4O)nc3)cc2s1)C1CC(N2CCC[C@H]2C(F)(F)F)C1 (some centres unmarked) | nM | 3.93
CC(C)(C)OC(=O)N1CC2(CC(C(=O)Nc3nc4ccc(-c5cnc(CO[C@H]6CCC[C@@H]6O)nc5)cc4s3)C2)C1 | nM | 6.39
O=C(Nc1nc2ccc(-c3cnc(CO[C@H]4CCC[C@@H]4O)nc3)cc2s1)C1CC1 | nM | 1.89
O=C(Nc1cc2cc(-c3cnc(CO[C@H]4CCC[C@@H]4O)nc3)ccn2n1)[C@@H]1C[C@H]1F | nM | 2.48
O=C(Nc1nc2ccc(-c3cnc(CO[C@H]4CCC[C@@H]4O)nc3)cc2s1)C1CC(N2CCOCC23CCC3)C1 (some centres unmarked) | nM | 1.63
N#CC12CC(NC3CC(C(=O)Nc4nc5ccc(-c6cnc(CO[C@H]7CCC[C@@H]7O)nc6)cc5s4)C3)(C1)C2 (some centres unmarked) | nM | 1.93

---

Reported IC50 for target or system human IRAK-4 (Homo sapiens (Human)), by entry.

molecule | IC50
CC(=O)N1CCC2(CC1)CC(C(=O)Nc1nc3ccc(-c4cnc(CO[C@H]5CCC[C@@H]5O)nc4)cc3s1)C2 [d-03-01] | 1.38 nM
C[C@H]1CN(C(=O)c2cccnc2)CCN1[C@H]1C[C@@H](C(=O)Nc2cc3cc(-c4cnc(CO[C@H]5CCC[C@@H]5O)nc4)ccn3n2)C1 [e-02-12] | 1.9 nM
C[C@H]1CN(C(=O)N2CCC2)CCN1[C@H]1C[C@@H](C(=O)Nc2nc3ccc(-c4cnc(CO[C@H]5CCC[C@@H]5O)nc4)cc3s2)C1 [b-05-09] | 2.13 nM
O=C(Nc1nc2ccc(-c3cnc(CO[C@H]4CCC[C@@H]4O)nc3)cc2s1)C1CC(N2CCOC[C@H]2C(F)(F)F)C1 (stereo partly drawn) [b-02-55] | 2.97 nM
O=C(Nc1nc2ccc(-c3cnc(CO[C@H]4CCC[C@@H]4O)nc3)cc2s1)C1CC(N2CCN(C3CC3)CC2)C1 (stereo partly drawn) [b-02-28] | 2.17 nM
CN(c1cnn(C)c1)C1CC(C(=O)Nc2nc3ccc(-c4cnc(CO[C@H]5CCC[C@@H]5O)nc4)cc3s2)C1 (stereo partly drawn) [b-03-09] | 2.21 nM
